experiment-notes: qHTS assay to identify small molecule antagonists of the TGF-beta/Smad signaling pathway - cell viability counter screen (AID 1346824); also: % is scaled to controls: 0 for no effect and ±100 for the full control effect; nearly all actives have a fitted effect of over 50% in size
measurement-parameters: SBE-bla HEK293T viability, CellTiter-Glo luminescence; series mostly up to 76.8 µM
Records with an inconclusive call do not appear. The source made the active and inactive calls. Calls follow the shape of the dose curve; as a rule, active = well fitted cell-killing curve with a large enough effect in the repeat runs; inconclusive = weak or mixed curves; inactive = flat fitted curve, though single readings scatter.
endpoint-name: viability change, negative = cytotoxic

Field: example entries. Status: answers known.
compound	reading
O=c1oc2c(O)c(O)cc3c(=O)oc4c(O)c(O)cc1c4c23	-7.88% [at 15.8 µM] (inactive)
C[C@]12C(=O)OC(=O)[C@H]1[C@H]1C=C[C@@H]2C1	inactive
CN(C)Cc1ccccc1	inactive
C=CC1CO1 (stereo not drawn)	inactive
O=C1CCN(c2ccccc2)N1	inactive
CC/C=C\CCOC(=O)CCCCC	inactive
Cc1nc(-c2ccccn2)ncc1C(=O)Nn1cc(C)c2cc(F)ccc21	inactive
CC(C)(C)c1ccc(OC(=O)c2ccccc2O)cc1	inactive
OC[C@H]1O[C@@H](O[C@H]2[C@H](O)[C@@H](O)[C@H](O)O[C@@H]2CO)[C@H](O)[C@@H](O)[C@H]1O	inactive
CC(C)O	inactive

Hello, I would appreciate it if you could give viability change, negative = cytotoxic for each entry below.
1. ICCc1ccccc1
2. N#CSCC(=O)O
3. CN(CCCN1c2ccccc2CCc2ccccc21)CC(=O)c1ccc(Cl)cc1

Found:
1. inactive
2. inactive
3. inactive

For each listed entry, give its viability change, negative = cytotoxic.
1. CCCCCCOc1ccc(N)cc1
2. FC(F)(F)C(Cl)(Cl)Cl
3. Nc1cccc(S(=O)(=O)O)c1
4. Cc1cc(S(=O)(=O)O)c(N)cc1Cl
5. CCCOc1ccc2c(c1)CC[C@@H]1[C@@H]2CC[C@]2(C)C(OC)CC[C@@H]12 (stereo partly drawn)
6. CCCNC(C)C(=O)Nc1c(C)csc1C(=O)OC (stereo not drawn)

Found:
["inactive", "inactive", "inactive", "inactive", "inactive", "inactive"]

###

experiment-notes: qHTS assay to identify small molecule agonists of the estrogen related receptor (ERR) signaling pathway from Tox21 library (AID 1224849); also: % is scaled to controls: 0 for no effect and ±100 for the full control effect; nearly all actives have a fitted effect of over 15% in size
measurement-parameters: ERR reporter cell line, ONE-Glo luciferase, 18 h; at 92.4 µM (top of the series) unless noted
The source made the active and inactive calls. Calls come from the whole dose curve.
Kindly supply the reported activity change, positive = activation values for the records listed here.

Working through the 8 molecules below one at a time, give activity change, positive = activation for each.
1. COc1cc(C)ccc1C(C)C
2. CC(=O)N[C@@H](CC(C)C)C(=O)O
3. COc1ccccc1N1CCN(CCCNc2cc(=O)n(C)c(=O)n2C)CC1
4. CC(Oc1c(Cl)cccc1Cl)C1=NCCN1 (centres undefined)
5. CCCNC(C)C(=O)Nc1c(C)csc1C(=O)OC (centres undefined)
6. O=C1N(c2ccccc2)c2ccccc2C1(Cc1ccncc1)Cc1ccncc1
7. O=C1CCCc2ccccc21
8. C1CSCCS1

Found:
["-0.104% (inactive)", "-0.851% [at 42.5 µM] (inactive)", "3.63% [at 42.5 µM] (inactive)", "-3.99% [at 42.5 µM] (inactive)", "-1.49% [at 42.5 µM] (inactive)", "5.08% [at 42.5 µM] (inactive)", "6.42% (inactive)", "3.63% (inactive)"]

Batch request: activity change, positive = activation for each of the following molecules.
1. Cc1ncc(CO)c(CN)c1O
2. CC/C=C\CCOC(=O)CCCCC
3. CC1(C)S[C@@H]2[C@H](NC(=O)C(C(=O)O)c3ccccc3)C(=O)N2[C@H]1C(=O)O (some centres undefined)
4. CCOc1ccccc1N
5. CCCNC(C)(C)COC(=O)c1ccccc1
6. CCCCCCn1c(=O)c2c(ncn2C)n(C)c1=O

Found:
4.27% [at 42.5 µM] (inactive)
5.28% (inactive)
8.06% [at 42.5 µM] (inactive)
-59% (inactive)
5.73% [at 42.5 µM] (inactive)
-1.88% [at 42.5 µM] (inactive)
